# protocol: binders from COS7 lysate, DM2A8 probe, primary screen, torsin A project, cell lysate, small-molecule microarray, fluorescence 635/667 (AID 1065)
# experimentalConditions: higher = more signal, COS7 lysate expressing mutant human TOR1A
Measured composite z-score, listed per entry.

compound	composite z-score
CCOC(=O)[C@H](CC(C)C)NC(=O)CCC1CC(OC(=O)NCc2cccc3ccccc23)CC2(CCCC(COC(=O)NCCOC)O2)O1 (stereo not given in full)	0.071
CO[C@@H]1COC(=O)[C@@H](C)NC(=O)CC=C[C@@H](C)[C@H](NS(=O)(=O)c2ccc(C)cc2)COC(=O)[C@H](C)NC(=O)CC=C[C@H]1C	0.441
CO[C@H]1COC(=O)[C@@H](C)COC(=O)[C@@H](OCc2ccccc2)C=C[C@@H]1C	-0.606

input: // lookup composite z-score for `CON=C1[C@H]2CCn3c(=O)n(-c4ccccc4)c(=O)n3[C@H]2[C@H](O)[C@@H]2O[C@H]12`
output: 0.135

input: // lookup composite z-score for `CC(CCN1CCCCc2nc(C)c(C)cc21)=NOC[C@@H](O)COCc1ccco1`
output: 2.6

input: // lookup composite z-score for `CC(=O)OC[C@H]1O[C@@H](ON=C(C)CCN2CCCc3nc(C)c(C)cc32)[C@H](OC(C)=O)[C@@H](OC(C)=O)[C@@H]1OC(C)=O`
output: 0.165

input: // lookup composite z-score for `O=c1n(Cc2cc3c(cc2Cl)OCO3)c(=O)n2n1CC[C@@H]1C(=NOC[C@@H](O)COCc3ccco3)[C@H]3O[C@H]3[C@@H](O)[C@@H]12`
output: 0.28

input: // lookup composite z-score for `CC(C)=CCCC(C)=CCON=C1C[C@@H](O)[C@@H](O)[C@@H]2[C@@H]3C(=O)N(c4ccc(F)cc4F)C(=O)[C@@H]3CC[C@H]12`
output: 0.611

input: // lookup composite z-score for `COC(=O)CC=C[C@@H](C)[C@@H](C=NOC[C@H]1O[C@H](c2ccccc2)C=C[C@@H]1Oc1ccc(OC)cc1)OC`
output: -0.0766
